measured-quantity: melting point

Please review the entries below; each comes with its answer.
molecule=Cc1c(C)n(Cc2ccccc2)c2ncnc(NCCc3ccccc3Cl)c12 result="223 to 227 °C"
molecule=Clc1ccccc1CCNc1ncnc2c1ccn2Cc1ccccc1 result="180 to 182.3 °C"
molecule=Cc1c(C)n(Cc2ccccc2)c2ncnc(NCCc3ccc(N)cc3)c12 result="150.7 to 151.8 °C"

Exercise: What measured melting point goes with Nc1ccc(CCNc2ncnc3c2ccn3Cc2cncc(Br)c2)cc1 ?
Key: 158.8 to 160.9 °C

Exercise: Dear colleague, I am looking for the recorded melting point of the following molecule: COc1ccc(CCNc2ncnc3c2ccn3Cc2cncc(Br)c2)cc1
Key: 100.4 to 100.7 °C

Exercise: Which melting point reading was recorded for the molecule Cc1c(C)n(Cc2ccco2)c2ncnc(NCC(O)c3ccccc3)c12 (stereo not drawn) ?
Key: 167.5 to 168 °C

###

Counter-ions that a name gives are not always drawn.
measured-quantity: melting point

Reference set, count: 5
compound="Cc1c(C)n(Cc2ccccc2)c2ncnc(NCCc3ccc(NC(=O)c4cccc(C(F)(F)F)c4)cc3)c12 [Example 48]" measured_quantity="melting point" result="110 to 113 °C"
compound="Cc1c(C)n(Cc2ccccc2)c2ncnc(NCCc3cccc(O)c3)c12 [Example 58]" measured_quantity="melting point" result="208.7 to 209.2 °C"
compound="CC(=O)Nc1ccc(CCNc2ncnc3c2c(C)c(C)n3Cc2cccc(Cl)c2)cc1 [Example 45]" measured_quantity="melting point" result="186.1 to 187.2 °C"
compound="Cc1c(C)n(CCCN(C)C)c2ncnc(NCCc3ccc(N)cc3)c12 (as salt: salt) [Example 12]" measured_quantity="melting point" result="237.2 to 239.9 °C"
compound="Fc1cccc(CCNc2ncnc3c2ccn3Cc2ccccc2)c1 [Example 27]" measured_quantity="melting point" result="116 to 117.5 °C"

Exercise: I would be grateful if you could share the reported melting point for COc1ccc(CCN(C)c2ncnc3c2c(C)c(C)n3Cc2cccc(Cl)c2)cc1OC [Example 22] .
Key: 178 to 180 °C

Exercise: Can you look up the measured melting point of CC(=O)Nc1ccc(CCNc2ncnc3c2ccn3Cc2ccccc2)cc1 [Example 47] for me?
Key: 228 to 229.5 °C

Exercise: Reported melting point for CCN(CC)C(=O)Nc1ccc(CCNc2ncnc3c2c(C)c(C)n3Cc2ccccc2)cc1 [Example 53] : what is it?
Key: 138.5 to 139 °C

Exercise: Would you mind telling me what melting point value was observed for Cc1c(C)n(Cc2ccccc2)c2ncnc(NCCc3ccc(O)cc3)c12 [Example 4] ?
Key: 198 to 199 °C

Exercise: Query (compound): Cc1c(C)n(Cc2ccccc2)c2ncnc(NCCc3ccc(N4C(=O)c5ccccc5C4=O)cc3)c12 [Example 6] ; field requested: melting point
Key: 219 to 221 °C

Exercise: What value of melting point has been reported for the following compound? Cc1c(C)n(Cc2cccc(Cl)c2)c2ncnc(NCCc3ccccc3Cl)c12 [Example 21]
Key: 190 to 192 °C

Exercise: Find the recorded melting point belonging to COc1ccc(CCNc2ncnc3c2ccn3Cc2cncc(Br)c2)cc1OC (as salt: salt) [Example 37] and report it.
Key: 119 to 120.4 °C

Exercise: What does the data say about its melting point? Entry: Cc1c(C)n(Cc2ccco2)c2ncnc(NCCc3cccc(F)c3)c12 [Example 33]
Key: 89 to 90 °C

Exercise: Which melting point value belongs to CCN(CC)C(=O)Nc1ccc(CCNc2ncnc3c2c(C)c(C)n3Cc2cccc(Cl)c2)cc1 [Example 52] ?
Key: 112.9 to 113.3 °C
